Target: HNF4alpha2 (COS-7 nuclear extract) (Homo sapiens, UniProt P41235 1-474)
Sequence: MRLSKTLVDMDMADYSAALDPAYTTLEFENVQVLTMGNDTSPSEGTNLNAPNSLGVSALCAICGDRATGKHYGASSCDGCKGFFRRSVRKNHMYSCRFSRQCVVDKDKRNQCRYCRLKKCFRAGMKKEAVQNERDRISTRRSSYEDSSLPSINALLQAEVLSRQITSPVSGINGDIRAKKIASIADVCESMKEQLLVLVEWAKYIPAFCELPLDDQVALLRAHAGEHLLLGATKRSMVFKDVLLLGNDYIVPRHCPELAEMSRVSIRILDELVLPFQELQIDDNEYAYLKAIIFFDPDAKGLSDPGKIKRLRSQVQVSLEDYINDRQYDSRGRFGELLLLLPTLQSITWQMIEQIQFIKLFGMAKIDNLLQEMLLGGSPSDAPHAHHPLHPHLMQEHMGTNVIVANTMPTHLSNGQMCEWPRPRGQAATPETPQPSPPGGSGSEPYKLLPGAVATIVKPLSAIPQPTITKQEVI
Assay: protein-binding microarray; COS-7 nuclear extract on double-stranded Agilent 4x180k PBM; binding buffer, salt, pH and temperature not given in the material; high values mean tight binding
Settings: chain copies: 2; label: 3' end of strand 1 on the slide; dsDNA, one strand shown
The full ranking holds about 18,000 sequences; the median of “log2 normalized intensity” is about 0.39, and the highest 2% start at about 6.6. The sample as a whole holds a higher share of the highest values than the screen did.
Endpoint: binding signal (log2 normalized intensity)
Provide only the numeric value, understood in log2 normalized intensity.

[in] Sample `TATGGATAGGCACATATTGGATCTCTGGTAGCCTAGGGAGATTAGAGTATCGGTCGA` — what was its binding signal?
[out] 0.865

[in] Sample `TTGAACACCACAAGTTTGAACTGCACAGGCGCCTAGGGAGATTAGAGTATCGGTCGA` — what was its binding signal?
[out] -0.333

[in] Sample `TTGCATAGGCATTGTCTTGAAAGATAAAGTGCCTAGGGAGATTAGAGTATCGGTCGA` — what was its binding signal?
[out] 0.627

[in] Sample `CAGTGGTAATGGAGCTGAAACTATAAACTTGCCTAGGGAGATTAGAGTATCGGTCGA` — what was its binding signal?
[out] -0.653

[in] Sample `GGGCTGGAACACAAAGAAAGCCAAAGTTCAGCCTAGGGAGATTAGAGTATCGGTCGA` — what was its binding signal?
[out] 2.41
